# targetOrSystem: T1, 包含有His标签的重组人源TSLP蛋白(rhTSLP-His) (human)
# T1 construct: also called rhTSLP-His重组蛋白; rhTSLP-His蛋白
# test: cell ELISA: antibody blocks binding of 100 ng rhTSLP-His to hTSLPR/hIL-7Rα-293T/17 cells
reportedEndpoint: IC50
Reply with a number, then the unit it belongs to.

Given the binder 鼠源抗TSLP单克隆抗体5F10-2-25 (antibody, V domains shown, Mouse hybridoma monoclonal antibody) VH: ELQQSGPQLVRPGASVKISCKASGYSFTSYWMHWVKQRPGQGLEWIGLIDPTDSEISLSQKFKDKATLTVDKLSSTAHMQLSSPTSEDSAVYYCARSLDGFFDQWGQGTTVTV VL: DIDLTQSPASLSASVGETVTITCRTSENIYSYLAWYQQKQGKSPQLLVYNAKSLAEGVPSRFSGSGSGTQFSLKINSLQPEDFGSYYCQHHYDTPWTFGGGTKLENKT , what is its reported IC50? 13.4 µg/mL
